Biological target: NL20 human bronchial epithelial cells expressing human Z-AAT (Homo sapiens, UniProt P01009, E366K)
Construct: expressed in transfected cells; host or cells: NL20 human bronchial epithelial cells (NL20-SI line; doxycycline added with compounds)
Sequence (P01009 25-418 E366K): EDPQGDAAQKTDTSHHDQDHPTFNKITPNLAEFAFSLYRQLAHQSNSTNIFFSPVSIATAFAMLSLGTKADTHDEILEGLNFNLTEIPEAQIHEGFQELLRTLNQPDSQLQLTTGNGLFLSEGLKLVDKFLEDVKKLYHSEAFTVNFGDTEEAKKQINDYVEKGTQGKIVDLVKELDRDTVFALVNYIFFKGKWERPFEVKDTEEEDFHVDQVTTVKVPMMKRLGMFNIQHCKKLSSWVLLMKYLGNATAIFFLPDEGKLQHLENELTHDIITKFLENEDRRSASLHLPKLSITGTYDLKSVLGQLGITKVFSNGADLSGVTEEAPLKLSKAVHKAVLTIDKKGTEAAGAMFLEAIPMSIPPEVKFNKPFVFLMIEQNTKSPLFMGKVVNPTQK
Assay: AAT Function Assay (MSD Assay NL20-SI Cell Line)
Assay type: cell-based
Settings: read-out: NL20 Functional EC50
result_type: EC50

The reported EC50 of the compound CC1(C)CC(c2c(-c3ccc(C(=O)O)cc3)c3c(O)cccc3n2-c2ccc(F)cc2)CCO1 (centres unmarked) [Compound 399] was 500 to 2000 nM

The reported EC50 of the compound O=C(O)c1ccc(-c2c3c(O)cccc3n(-c3ccc(F)cc3)c2[C@H]2CC[C@@H](O)CC2)cc1 [Compound 189] was > 2000 nM

The reported EC50 of the compound Cc1cc(-n2c(C(C)(C)CC#N)c(-c3ccc(C(=O)O)cc3)c3c(O)cc(F)cc32)ccc1F [Compound 180] was < 500 nM

The reported EC50 of the compound COCC1(c2c(-c3ccc(C(=O)O)c(OC)c3)c3cc(F)c(F)cc3n2-c2ccc(F)c(OC)c2)CCC1 [Compound B22] was 500 to 2000 nM

The reported EC50 of the compound COCC1(c2c(-c3ccc(C(=O)O)cc3)c3c(O)c(F)ccc3n2-c2ccc(F)c(F)c2)COC1 [Compound 253] was 500 to 2000 nM

The reported EC50 of the compound C[C@]1(O)CC[C@@H](c2c(-c3ccc(C(=O)O)cc3)c3c(O)cccc3n2-c2ccc(F)cc2)CC1 [Compound 390] was > 2000 nM

The reported EC50 of the compound COCC1(c2c(-c3ccc(C(=O)O)c(OC)c3)c3c(O)cc(F)cc3n2-c2ccc(F)c(F)c2)CCC1 [Compound 478] was < 500 nM

The reported EC50 of the compound CC(c1c(-c2ccc(C(=O)O)cc2)c2c(O)cccc2n1-c1ccc(F)cc1)C1CCOC1 (single isomer, unassigned) [Compound 211] was 500 to 2000 nM

The reported EC50 of the compound COc1nc(C(=O)O)ccc1-c1c(C(C)(C)CC#N)n(-c2ccc(F)c(C)c2)c2cc(F)cc(O)c12 [Compound 483] was 500 to 2000 nM

The reported EC50 of the compound COc1cc(-n2c(C3CCOCC3)c(-c3cccc(C(=O)O)c3)c3c(O)cc(F)cc32)ccc1F [Compound 499] was 500 to 2000 nM

The reported EC50 of the compound CC(C)(COC(F)F)c1c(-c2ccc(C(=O)O)cc2)c2c(O)cc(F)cc2n1-c1ccc(F)cc1 [Compound 214] was < 500 nM

The reported EC50 of the compound COCC(C)(COC)c1c(-c2ccc(C(=O)O)cc2)c2c(O)cccc2n1-c1ccc(F)cc1 [Compound 158] was 500 to 2000 nM

The reported EC50 of the compound CCC1(c2c(-c3ccc(C(=O)O)cc3)c3c(O)c(F)ccc3n2-c2ccc(F)c(C)c2)COC1 [Compound 323] was 500 to 2000 nM

The reported EC50 of the compound O=C(O)c1ccc(-c2c(C(F)(F)F)n(-c3ccc(F)c(F)c3)c3cccc(O)c23)cc1 [Compound 18] was 500 to 2000 nM

The reported EC50 of the compound COc1cc(-n2c(C3(CC#N)CCC3)c(-c3ccc(C(=O)O)cc3)c3c(O)cc(F)cc32)ccc1F [Compound 230] was < 500 nM

The reported EC50 of the compound Cc1cc(-n2c(C3(C)CC(O)C3)c(-c3ccc(C(=O)O)cc3)c3c(O)cccc32)ccc1F (centres unmarked) [Compound 193] was 500 to 2000 nM

The reported EC50 of the compound O=C(O)[C@H]1C[C@H](c2c(C3CCOCC3)n(-c3ccc(F)cc3)c3ccc(F)cc32)C1 [Compound W22] was > 2000 nM

The reported EC50 of the compound COc1cc(-n2c(C3(C)CCOCC3)c(-c3ccc(C(=O)O)c(OC)c3)c3c(O)cc(F)cc32)ccc1F [Compound 472] was 500 to 2000 nM

The reported EC50 of the compound CC(C)(CC#N)c1c(-c2ccc(C(=O)O)cc2F)c2c(O)cc(Cl)cc2n1-c1ccc(F)c(F)c1 [Compound 296] was < 500 nM

The reported EC50 of the compound O=C(O)c1ccc(-c2c(C3CCOCC3)n(-c3ccc(F)cc3)c3ccc(F)c(O)c23)cc1 [Compound 102] was < 500 nM

The reported EC50 of the compound COCC1(c2c(-c3cc(OC)c(C(=O)O)cc3F)c3c(O)cc(F)cc3n2-c2ccc(F)c(OC)c2)CCC1 [Compound 490] was < 500 nM

The reported EC50 of the compound CN(C)C(=O)OCC(C)(C)c1c(-c2ccc(C(=O)O)cc2)c2c(O)cccc2n1-c1ccc(F)cc1 [Compound 169] was < 500 nM

The reported EC50 of the compound Cc1cc(-n2c(C3CCOCC3)c(C3CC(C)(C(=O)O)C3)c3c(O)cccc32)ccc1F (centres unmarked) [Compound 41] was > 2000 nM

The reported EC50 of the compound COC(=O)N1CCC(c2c(-c3ccc(C(=O)O)cc3)c3c(O)cccc3n2-c2ccc(F)cc2)C1 (centres unmarked) [Compound 200] was > 2000 nM

The reported EC50 of the compound COCC(C)(C)c1c(-c2ccc(C(=O)O)cc2)c2c(O)cc(Cl)cc2n1-c1ccc(F)c(F)c1 [Compound 286] was < 500 nM

The reported EC50 of the compound COCC(C)(C)c1c(-c2ccc(C(=O)O)cc2)c2c(O)cccc2n1-c1ccc(F)c(F)c1 [Compound 16] was < 500 nM

The reported EC50 of the compound [2H]C1([2H])COCC([2H])([2H])C1([2H])c1c(-c2ccc(C(=O)O)cc2)c2c(O)cc(F)cc2n1-c1ccc(F)c(F)c1 [Compound 281] was < 500 nM

The reported EC50 of the compound O=C(O)c1ccc(-c2c(C3CCOCC3)n(-c3ccc(F)c(F)c3)c3cccc(O)c23)cc1 [Compound 4] was < 500 nM

The reported EC50 of the compound COc1cc(-n2c(C3CCC3OC)c(-c3ccc(C(=O)O)c(OC)c3)c3c(O)cc(F)cc32)ccc1F (centres unmarked) [Compound 525] was 500 to 2000 nM
